Please provide measured pEC50 for the entries that follow.
- Tested on: BxPC3
- assay.overview: XTT assay, anti-proliferative action, BxPC3
- Assay type: cell-based
- study.conditions: Homo sapiens, BXPC-3, 45 h, BxPC3 cells, 45 h incubation
pEC50: −log10 of the molar value.

Reference set, count: 3
>>> value_measured("CCNC(=O)Nc1ccc2ncc(-c3ccc(OC(=O)OCC(C)C)cc3)nc2n1")
"< 4.60"
>>> value_measured("CCNC(=O)Nc1ccc(-c2cnc3ccc(NC(=O)NCC)nc3n2)cc1")
"< 4.30"
>>> value_measured("CCNC(=O)Nc1ccc2ncc(-c3cccc(OC(=O)OCCOC)c3)nc2n1")
"< 4.60"

Consider the additional molecule presented here.
Form: molecule = CCNC(=O)Nc1ccc2ncc(-c3ccc(OC(=O)OCCOC)c(OC)c3)nc2n1 ; pEC50 = 5.23

###

- target.system: Erk2
- Construct: in some cases as full-length kinases, in some cases as truncated fragments
- Sequence (P63085 whole entry, the tested form may be a part): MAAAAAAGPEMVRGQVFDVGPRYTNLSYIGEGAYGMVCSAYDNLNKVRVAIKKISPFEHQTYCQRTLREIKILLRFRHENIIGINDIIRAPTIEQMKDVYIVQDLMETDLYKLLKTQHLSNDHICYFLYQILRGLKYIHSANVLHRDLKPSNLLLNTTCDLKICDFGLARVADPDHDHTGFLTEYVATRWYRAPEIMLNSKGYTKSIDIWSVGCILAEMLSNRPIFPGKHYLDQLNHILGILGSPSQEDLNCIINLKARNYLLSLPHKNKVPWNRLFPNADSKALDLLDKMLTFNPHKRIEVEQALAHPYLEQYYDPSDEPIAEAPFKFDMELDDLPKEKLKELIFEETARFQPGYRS
- assay.overview: Cell-free kinase assay (ALPHA technology), Erk2-ALPHA
- study.conditions: 10 μM ATP, recombinant human kinase
Where a name gives a salt, the structure may show the parent alone.
metric: pIC50
Numbers only, as −log10 of the molar value.

>>> value_measured("CCNC(=O)Nc1ccc2ncc(-c3ccc(OC(=O)/C=C/c4ccccc4)cc3)nc2n1 [Compound 13]")
6.19

For each listed entry, give its pIC50.
1. CCNC(=O)Nc1ccc2ncc(-c3cccc(OC(=O)OCCOC)c3)nc2n1 [Compound 16]
2. CONC(=O)Nc1ccc2ncc(-c3ccc(O)c(OC)c3)nc2n1 [Compound 61]
3. CCNC(=O)Nc1ccc2ncc(-c3ccc(OC(=O)OCCOC)cc3)nc2n1 [Compound 55, hydrochloride]
4. CCNC(=O)Nc1ccc2ncc(-c3ccc(OCCOCCOC)cc3)nc2n1 [Compound 29]
5. CCNC(=O)Nc1ccc2ncc(-c3ccc(OC(=O)OCCOC)c(OC)c3)nc2n1 [Compound 32]
6. CCNC(=O)Nc1ccc2ncc(/C=C/COC)nc2n1 [Compound 6]
7. CCNC(=O)Nc1ccc2ncc(Nc3ccc(CN4CCCCC4)cc3)nc2n1 [Compound 51]

[6.29, 6.52, 6.09, 6.40, 6.08, 5.62, 4.72]

For each listed entry, give its pIC50.
1. CCNC(=O)Nc1ccc2ncc(-c3ccc(CN4CCOCC4)cc3)nc2n1 [Compound 28]
2. CCNC(=O)Nc1ccc(-c2cnc3ccc(NC(=O)NCC)nc3n2)cn1 [Compound 25]
3. CCNC(=O)Nc1ccc(-c2cnc3ccc(NC(=O)NCC)nc3n2)cc1 [Compound 23]
4. CCNC(=O)Nc1ccc2ncc(-c3ccc(OC(=O)OCC(C)C)cc3)nc2n1 [Compound 17]
5. CCNC(=O)Nc1ccc2ncc(-c3ccc(OC(=O)N(C)C)cc3)nc2n1 [Compound 19]

1: 6.44; 2: 5.47; 3: 5.72; 4: 6.78; 5: 5.41

For each listed entry, give its pIC50.
1. CCNC(=O)Nc1ccc2ncc(-c3ccc(OC(=O)OCCOC)cc3)nc2n1 [Compound 56]
2. COc1cc(-c2cnc3ccc(NC(=O)NCCCCP(=O)(O)O)nc3n2)ccc1O [Compound 45]
3. CCNC(=O)Nc1ccc2ncc(Nc3cccc(C(=O)NC)c3)nc2n1 [Compound 50]

1. 6.57
2. 6.61
3. 5.33

###

- System: Jnk1 + Jnk2
- assay.overview: Cell-free kinase assay (ALPHA technology), Jnk1 + Jnk2
- Type: biochemical
- study.conditions: at 10 μM or 100 μM* ATP, recombinant human kinases
metric: pIC50
Answers are plain numbers, as −log10 of the molar value.

Reference set, count: 4
>>> value_measured("CCNC(=O)Nc1ccc2ncc(-c3cccc(OC(=O)OCCOC)c3)nc2n1 [Compound 16]")
5.25
>>> value_measured("CONC(=O)Nc1ccc2ncc(-c3ccccc3)nc2n1 [Compound 7]")
4.94
>>> value_measured("CCNC(=O)Nc1ccc2ncc(-c3ccc(OCCOCCOC)cc3)nc2n1 [Compound 29]")
4.62
>>> value_measured("CONC(=O)Nc1ccc2ncc(-c3ccc(O)c(OC)c3)nc2n1 [Compound 61]")
5.68

For each listed entry, give its pIC50.
1. COc1cc(-c2cnc3ccc(NC(=O)NCCCCP(=O)(O)O)nc3n2)ccc1O [Compound 45]
2. CCNC(=O)Nc1ccc2ncc(-c3ccc(CN4CCOCC4)cc3)nc2n1 [Compound 28]
3. CCNC(=O)Nc1ccc2ncc(-c3ccc(OC(=O)OCCOC)cc3)nc2n1 [Compound 10]

1. 6.01
2. 5.30
3. 5.54

For each listed entry, give its pIC50.
1. CCNC(=O)Nc1ccc2ncc(-c3ccc(OC(=O)OCCOC)c(OC)c3)nc2n1 [Compound 32]
2. CCNC(=O)Nc1ccc(-c2cnc3ccc(NC(=O)NCC)nc3n2)cn1 [Compound 25]

1. 5.38
2. 4.62

Form: compound = C=CCONC(=O)Nc1ccc2ncc(-c3ccccc3)nc2n1 [Compound 8] ; pIC50 = 4.71
